For reference, pKd measured on Mer (Homo sapiens, UniProt Q12866):
pKd: −log10 of the molar value.

Example cases with answers are listed next.
| compound | test.system | pKd |
| --- | --- | --- |
| CCOc1cn(-c2ncc(Cl)cc2CN)nc1C(=O)Nc1ccc(Oc2ccnc3cc(OC)c(OC)cc23)cn1 | Mer (Homo sapiens, UniProt Q12866) | > 7.00 |
| CCOc1cn(-c2ncccc2CN(C)C)nc1C(=O)Nc1ccc(Oc2ccnc3cc(OC)c(OC)cc23)cn1 | Mer (Homo sapiens, UniProt Q12866) | > 7.00 |
| CCOc1cn(-c2cnsc2)nc1C(=O)Nc1ccc(Oc2ccnc3cc(OC)c(OC)cc23)cn1 | Mer (Homo sapiens, UniProt Q12866) | > 7.00 |

pKd in this record for `CCOc1cn(-c2ccc(Cl)cc2F)nc1C(=O)Nc1ccc(Oc2ccnc3cc(OC)c(OC)cc23)cn1` : > 7.00

pKd in this record for `CCOc1cn(C2CCCC2)nc1C(=O)Nc1ccc(Oc2ccnc3cc(OC)c(OC)cc23)cn1` : > 7.00

pKd in this record for `CCOc1cn(-c2cnc(C)cn2)nc1C(=O)Nc1ccc(Oc2ccnc3cc(OC)c(OC)cc23)cn1` : > 7.00

pKd in this record for `CCOc1cn(-c2cnc(C#N)nc2)nc1C(=O)Nc1ccc(Oc2ccnc3cc(OC)c(OC)cc23)cn1` : 6.00 to 7.00

pKd in this record for `CCOc1cn(-c2cncnc2C2CC2)nc1C(=O)Nc1ccc(Oc2ccnc3cc(OC)c(OC)cc23)cn1` : > 7.00

pKd in this record for `CCOc1cn(-c2cc[nH]c2)nc1C(=O)Nc1ccc(Oc2ccnc3cc(OC)c(OC)cc23)cn1` : > 7.00

pKd in this record for `CCOc1cn(C(C)(C)C(=O)NC)nc1C(=O)Nc1ccc(Oc2ccnc3cc(OC)c(OC)cc23)cn1` : > 7.00
